# method: Solubility in WFI and DPBS; UPLC C18 retention time as hydrophobicity
# recordedConditions: water for injection

compound	solubility
CC[C@H](C)[C@H](NC(=O)CNC)C(=O)N[C@H]1CSSC[C@@H](C(=O)N(C)[C@H](C(N)=O)[C@@H](C)CC)NC(=O)[C@H](CCCNC(=N)N)NC(=O)[C@H](Cc2c[nH]cn2)NC(=O)[C@H](C)NC(=O)CN(C)C(=O)[C@H](Cc2c[nH]c3ccccc23)NC(=O)[C@H](CC(=O)O)NC(=O)[C@H](CCC(N)=O)NC(=O)[C@H](Cc2cn(C)c3ccccc23)NC(=O)[C@H](C(C)C)NC1=O [peptide 3]	> 50 mg/mL
